Tested on: SN12C renal
Test: NCI-60 one-dose screen, 48 h (100 = growth as untreated, 0 = no growth, -100 = all killed)
Conditions: 10 µM unless noted
This is part of a sample that, as a whole, favours compounds with a hit. Of some 83,000 tested, about 20% had one in any assay.
measure: growth (%)
Write down the numeric answer in % and omit the unit.

The following compounds have reported results that may help.
[[record]]
compound = "c1ccc2c(c1)oc1cc3c(cc12)nnc1cccn13"
target_or_test_system = "SN12C renal"
measurement_unit = "%"
reported = 103

[[record]]
compound = "O=C(CCc1nnc2sc(-c3ccccc3)nn12)c1nc2ccccc2[nH]1"
target_or_test_system = "SN12C renal"
measurement_unit = "%"
reported = 86.6

[[record]]
compound = "Cc1cc(=O)oc2c1ccc1oc(C(=O)c3ccccc3)c(C)c12"
target_or_test_system = "SN12C renal"
measurement_unit = "%"
reported = 71


Report growth from SN12C renal testing of `O=C(COc1cccc(/C=C2\COc3ccccc3C2=O)c1)c1ccccc1` 84.9

Report growth from SN12C renal testing of `Cn1c2c(cc(S(=O)(=O)c3ccccc3)c1=O)CCc1c-2cnn1-c1cccc(Cl)c1` 90.3

Report growth from SN12C renal testing of COc1ccc(C2=NOC(CC(=O)N(CCO)CCO)C2)cc1OC1CCCC1 (centres undefined) 104

Report growth from SN12C renal testing of `O=C1/C(=C/c2ccccc2F)CNC/C1=C\c1ccccc1F` -51.1

Report growth from SN12C renal testing of `C[C@]1(CO)C[C@@H](O)C[C@]2(C)[C@@H]1CC[C@@]13C[C@@H]4[C@@H](C[C@H]12)[C@]4(C)C3` 99.1

Report growth from SN12C renal testing of COc1cc(/C=C/C(=O)C2=C(/C=C/c3ccc(O)c(OC)c3)NC(=O)NC2c2ccc(O)c(OC)c2)ccc1O (centres undefined) 93.6

Report growth from SN12C renal testing of `Cn1c(=O)c2c(-c3ccccc3F)n(-c3ccc4c(c3)OCO4)cc2n(C)c1=O` 90.4

Report growth from SN12C renal testing of `COc1ccc(/C=C/C(=O)N2CCC(O)CC2)cc1OC1CCCC1` 95

Report growth from SN12C renal testing of `CC(=O)Nc1ccccc1-c1n[nH]c(=O)[nH]c1=O` 104

Report growth from SN12C renal testing of COc1cccc(C2CC(=O)Nc3cc4c(cc32)OCO4)c1OC (centres undefined) 103

Report growth from SN12C renal testing of O=C1CCC(N2Cc3c(C#CCCCNC(=O)c4cc5c(o4)C(=O)c4ccccc4C5=O)cccc3C2=O)C(=O)N1 (centres undefined) -92.2

Report growth from SN12C renal testing of CC(C)(C)[Si](C)(C)OC1[C@@H](CNC(=O)NC(=O)CCl)O[C@@H](n2cnc3c(N)ncnc32)[C@H]1O[Si](C)(C)C(C)(C)C (some centres undefined) -81.9

Report growth from SN12C renal testing of `O=c1c2c(=NCCN3CCCC3)cc3c(=O)n(CCCN4CCOCC4)c(=O)c4ccc(c(O)n1CCCN1CCOCC1)c2c4-3` 4.69

Report growth from SN12C renal testing of `COC(=O)c1c2c(c(C)[n+]([O-])c1C)C(=O)C=C(NCc1ccc(F)cc1)C2=O` -88.8

Report growth from SN12C renal testing of `Clc1ccc(Nc2ccnc(N3CCN(c4ccnc5cc(Cl)ccc45)CC3)n2)cc1` 51.4

Report growth from SN12C renal testing of `COc1ccc(S(=O)(=O)ON=C2C=C(C)C(=O)C(C)=C2)cc1` 113
